The following molecules are listed with their measured TGI values.
- Test system: SK-MEL-2 melanoma
- test_details: NCI tumour cell line growth inhibition, 48 h
Write down the numeric answer in µM and omit the unit.

INSERT INTO assay_data (molecule, property, readout_units, reported) VALUES
  ('Cc1cnc2[nH]c(-c3cccc(Cl)c3)cc(=O)c2c1', 'TGI', 'µM', 97.4),
  ('CN(C)CCNC(=O)c1cccc2c1nc(-c1ccccn1)c1ccccc12', 'TGI', 'µM', 34),
  ('CC(C)(C)c1nnc2n(c1=O)N=CC(c1ccc(Br)cc1)S2 (configuration not stated)', 'TGI', 'µM', 66.1);

Input: For `Cc1nc2ccccc2cc1C[N+]12CN3CN(CN(C3)C1)C2` , what is its reported TGI?
Output: 39.8

Input: What would you report for `Oc1ccc(SCc2ccc(NCc3ccccc3)cc2)cc1` ?
Output: 61.1

Input: What would you report for OC(C(=Nc1ccccc1)c1ccccc1)c1ccccc1 (configuration not stated) ?
Output: 6.47
